# ASSAY INFO: Pharmacokinetics study of KDG-0320-0A in male CD1 mice (Example 1)
# Format: in vivo
# RUN CONDITIONS: mouse, plasma, 1 mg/kg IV, 0.083 h, read-out: Concentration IV_Mean
Structures can show the parent of a compound that is named as a salt.
REPORTED METRIC: concentration at 0.083 h (ng/mL)
Write down the numeric answer in ng/mL and omit the unit.

Query :: Which measured concentration at 0.083 h value corresponds to Cc1n[nH]c2c1C(c1cc(C#C[C@H]3CC[C@H](NC(=O)OC(C)(C)C)CC3)cc(CO)c1)(C(C)C)C(C#N)=C(N)O2 (stereo partly shown) [KDG-0320, hydrochloride] ?
Result :: 363
